- System: BAZ2B
- ASSAY EXPLANATION: Histone peptide microarray
- Type: binding, human
- MEASUREMENT CONDITIONS: BAZ2B, GST-tagged; arrays performed twice, n of 4
Where no end group is shown, it is not given here. [ ]: non-standard residue; d: D form. Arg(Me2a) = CN(C)C(=N)NCCC[C@H](N)C(=O)O; pS = N[C@@H](COP(=O)(O)O)C(=O)O
Criterion: Array Heatmap value (peptide array binding signal) strictly less than 0.4. Met: Satisfied. Not met: Not satisfied.

Some solved cases for reference:
- SUBSTANCE: "H4K12ac + KQ5,8,16,20: H4 1-23 (SGRGQGGQGLGK(Ac)GGAQRHRQVLR; UniProt P62805 2-24, looked up, variant K5Q K8Q K16Q K20Q)"
  CLASS LABEL: "Not satisfied"
- SUBSTANCE: "H2AS1p + K5ac: H2A 1-17 ([pS]GRGK(Ac)QGGKARAKAKTR; UniProt P0C0S8 2-18, looked up, fragment)"
  CLASS LABEL: "Satisfied"
- SUBSTANCE: "H2AS1p + R3me2a + K5ac: H2A 1-17 ([pS]G[Arg(Me2a)]GK(Ac)QGGKARAKAKTR; UniProt P0C0S8 2-18, looked up, fragment)"
  CLASS LABEL: "Not satisfied"

Prompt: Determine whether this substance shows Array Heatmap value (peptide array binding signal) lower than 0.4 (ties excluded): H2A.Z (1-19): H2AZ 1-19 (AGGKAGKDSGKAKTKAVSR; UniProt P0C0S5 2-20, looked up, fragment)
Response: Not satisfied

Prompt: Lab log: compare recorded Array Heatmap value (peptide array binding signal) with 0.4; is it strictly lower for Myc-Tag: 1-10 (ILKKATAYIL; Myc epitope tag; UniProt P01106 410-419, looked up, fragment) ?
Response: Not satisfied

Prompt: In the record for H2A.Z K4ac + K8ac + K12ac (1-19) (N-ac): H2AZ 1-19 (Ac-AGGKAGKDSGKAKTKAVSR; not fully specified (residue 4); UniProt P0C0S5 2-20, looked up, fragment) , is Array Heatmap value (peptide array binding signal) less than 0.4?
Response: Not satisfied
